// reported pKd per item
- TEST_TARGET: biotinylated human DLL3 protein expressed as a human IgG1 fusion protein (human) (UniProt Q9NYJ7)
- Sequence (Q9NYJ7 27-492): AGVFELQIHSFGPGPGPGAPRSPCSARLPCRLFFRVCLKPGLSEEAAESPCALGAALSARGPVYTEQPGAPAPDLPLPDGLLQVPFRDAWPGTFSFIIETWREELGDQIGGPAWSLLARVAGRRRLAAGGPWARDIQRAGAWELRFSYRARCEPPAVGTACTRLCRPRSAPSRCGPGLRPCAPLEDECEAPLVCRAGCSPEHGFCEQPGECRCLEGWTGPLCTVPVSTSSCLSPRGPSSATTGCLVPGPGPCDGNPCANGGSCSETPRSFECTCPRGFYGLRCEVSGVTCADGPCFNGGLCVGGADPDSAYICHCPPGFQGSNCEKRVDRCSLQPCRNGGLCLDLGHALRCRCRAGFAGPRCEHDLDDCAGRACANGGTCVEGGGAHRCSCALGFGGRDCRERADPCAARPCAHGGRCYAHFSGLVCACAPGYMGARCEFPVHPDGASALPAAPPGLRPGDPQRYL
- MEASUREMENT_PROTOCOL: Octet, biotinylated human DLL3-IgG1 fusion on streptavidin tips, single 50 nM, conditioned medium (relative KD)
# log scale: pKd equals minus log10 of the concentration in mol/L

BINDER	pKd
anti-DLL3 trispecific protein, DLL3 binder 1H02 (protein, part only; not given: anti-CD3 fragment and anti-albumin domain, part only) chain, part: EVQLVESGGGLVQPGGSLTLSCVASGSKSSINAMGWYRRAPGKQRELAAGISSDGSKVYAQSVKGRFTISRDNAKNSVYLQMNSLRAEDTAVYYCYYFRTSSGSSMRYWGQGTLVTVSSGGGGSGGGSGGGGSGGGSHHHHHH	8.00
anti-DLL3 trispecific protein, DLL3 binder 3E02 (protein, part only; not given: anti-CD3 fragment and anti-albumin domain, part only) chain, part: EVQLVESGGGLVQPGGSLTLSCAASGSGVRFLSMAWYRQAPGKKRELVAGISPDGSTDYIDSVKGRFTISRDNAKNSVYLQMNSLRAEDTAVYYCYAYRWTRRYTYWGQGTLVTVSSGGGGSGGGSGGGGSGGGSHHHHHH	7.92
anti-DLL3 trispecific protein, DLL3 binder 3F09 (protein, part only; not given: anti-CD3 fragment and anti-albumin sdAb, part only) chain, part: EVQLVESGGGLVQPGGSLTLSCAASGSSVRFLSMAWYRQAPGKKRELVAGISRDGSTDYIDSVKGRFTISRDNAKNSVYLQMNSLRAEDTAVYYCYAYRWGTRYTYWGQGTLVTVSSGGGGSGGGSGGGGSGGGSHHHHHH	7.92
anti-DLL3 trispecific protein, DLL3 binder 2F08 (protein, part only; not given: anti-CD3 fragment and anti-albumin domain, part only) chain, part: EVQLVESGGGLVQPGGSLTLSCVASGSKSSINAMGWYRRAPGKQRELPAGISSNGTKVYADSAKVRFTISRDNAKNSVYLQMNSLRAEDTAVYYCYYFRTVLGTSMRYWGQGTLVTVSSGGGGSGGGSGGGGSGGGSHHHHHH	7.70
anti-DLL3 trispecific protein, DLL3 binder 3B09 (protein, part only; not given: CD3 binder and albumin binder, part only) chain, part: EVQLVESGGGLVQPGGSLTLSCAASGSHVSFLSMAWYRQAPGKKRELVAGISANGSTDYIDSVKGRFTISRDNAKNSVYLQMNSLRAEDTAVYYCYAYRWTTRYAYWGQGTLVTVSSGGGGSGGGSGGGGSGGGSHHHHHH	7.70

Task item: I would be grateful if you could share the reported pKd for anti-DLL3 trispecific protein, DLL3 binder 4E011 (protein, part only; not given: anti-CD3 fragment and anti-albumin sdAb, part only) chain, part: EVQLVESGGGLVQPGGSLTLSCAASGSSVSFLSMAWYRQAPGKKRELVAGISATGSTDYIDSVKGRFTISRDNAKNSVYLQMNSLRAEDTAVYYCYAYRWSTRYTYWGQGTLVTVSSGGGGSGGGSGGGGSGGGSHHHHHH .
Reply: 7.89
